measurement target: HCV NS3/4A protease complex, BMS strain (genotype 1a) (UniProt P27958, species not given/STRAIN_BMS)
Construct: "DNA encoding the recombinant HCV NS3/4A protease complex (amino acids 1027 to 1711) for these strains" (said of H77 and J4L6S, not expressly of BMS); given for the H77/J4L6S constructs only
Sequence (P27958 1027-1657, stated change not applied, one chain of several): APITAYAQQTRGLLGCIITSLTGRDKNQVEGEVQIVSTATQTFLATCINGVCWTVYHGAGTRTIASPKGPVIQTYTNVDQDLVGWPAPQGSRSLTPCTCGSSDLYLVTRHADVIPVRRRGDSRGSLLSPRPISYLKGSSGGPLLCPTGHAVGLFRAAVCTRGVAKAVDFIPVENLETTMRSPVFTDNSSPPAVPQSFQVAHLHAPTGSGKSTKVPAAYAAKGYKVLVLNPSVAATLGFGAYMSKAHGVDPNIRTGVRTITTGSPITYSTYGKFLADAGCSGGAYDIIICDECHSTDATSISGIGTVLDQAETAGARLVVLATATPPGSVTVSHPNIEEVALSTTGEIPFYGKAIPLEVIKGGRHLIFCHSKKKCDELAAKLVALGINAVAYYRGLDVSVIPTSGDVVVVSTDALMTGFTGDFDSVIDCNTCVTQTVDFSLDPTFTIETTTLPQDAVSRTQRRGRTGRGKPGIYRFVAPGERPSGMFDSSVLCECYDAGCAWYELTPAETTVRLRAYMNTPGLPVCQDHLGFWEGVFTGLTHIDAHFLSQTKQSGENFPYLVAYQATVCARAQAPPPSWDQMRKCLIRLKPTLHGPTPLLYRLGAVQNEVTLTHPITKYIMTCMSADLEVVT
experimental details: FRET peptide assay to monitor HCV NS3/4A proteolytic activity (BMS strain)
Assay type: biochemical
condition details: BMS strain; read-out: IC50 against the NS3/4A BMS strain in the enzyme assay
Description: HCV NS3 protease complexes, derived from the BMS strain, H77 strain or J4L6S strain, were generated, as described below. These purified recombinant proteins were generated for use in a homogeneous assay (see below) to provide an indication of how effective compounds of the present disclosure would be in inhibiting HCV NS3 proteolytic activity. Serum from an HCV-infected patient was obtained from Dr. T. Wright, San Francisco Hospital. […]
endpoint name: pIC50
Convention used: pIC50 is expressed as -log10 of the molar concentration.

For the molecule `C=C[C@@H]1C[C@]1(NC(=O)[C@@H]1C[C@@](O)(c2ccc(-c3ccccc3)cc2)CN1C(=O)[C@@H](NC(=O)OC(C)(C)C)C(C)(C)C)C(=O)NS(=O)(=O)C1CC1` , what pIC50 is on record? 8.36

----------
Tested on: HCV replicon (Renilla luciferase reporter) in HUH-7 cells
experimental details: HCV replicon luciferase reporter assay
Type: cell-based
condition details: Huh-7, read-out: EC50 in the replicon Luciferase assay
Method: An HCV replicon whole cell system was established as described by Lohmann V, Korner F, Koch J, Herian U, Theilmann L, Bartenschlager R., Science 285(5424): 110-3 (1999). […] As a secondary assay, EC50 determinations from the replicon FRET assay were confirmed in a replicon luciferase reporter assay. […] Following 4 days in a 37° C./5% CO2 incubator, cells were analyzed for Renilla Luciferase activity using the Promega Dual-Glo Luciferase Assay System. […]
endpoint name: EC50
Write your answer as a measured quantity: the number, then the unit.

// map C=C[C@@H]1C[C@]1(NC(=O)[C@@H]1C[C@@](O)(c2ccc(-c3ccccc3)cc2)CN1C(=O)[C@@H](NC(=O)OC(C)(C)C)C(C)(C)C)C(=O)NS(=O)(=O)C1CC1 [Compound 3] to recorded EC50 (system: HCV replicon (Renilla luciferase reporter) in HUH-7 cells) 1.4 nM

----------
measurement target: HCV NS3/4A protease complex, BMS strain (genotype 1a) (UniProt P27958, species not given/STRAIN_BMS)
Construct: "DNA encoding the recombinant HCV NS3/4A protease complex (amino acids 1027 to 1711) for these strains" (said of H77 and J4L6S, not expressly of BMS); given for the H77/J4L6S constructs only
experimental details: FRET peptide assay to monitor HCV NS3/4A proteolytic activity (BMS strain)
Type: biochemical
condition details: NS3/4A BMS strain; activity range symbols of Table 2; read-out: HCV Protease (IC50)
pIC50: −log10 of the molar value.
endpoint name: pIC50

For the molecule `C=C[C@@H]1C[C@]1(NC(=O)[C@@H]1C[C@@](OC)(c2ccc(-c3ccccc3)cc2)CN1C(=O)[C@@H](NC(=O)NC(C)(C)C)C(C)(C)C)C(=O)NS(=O)(=O)C1CC1` , what pIC50 is on record? 7.30 to 9.00

For the molecule `CC[C@@H]1C[C@]1(NC(=O)[C@@H]1C[C@@](OC)(c2ccc(-c3ccccc3)cc2)CN1C(=O)[C@@H](NC(=O)OC(C)(C)C)C(C)(C)C)C(=O)NS(=O)(=O)C1CC1` , what pIC50 is on record? 7.30 to 9.00

For the molecule `C=C[C@@H]1C[C@]1(NC(=O)[C@@H]1C[C@@](OC)(c2ccc(-c3ccccc3)cc2)CN1C(=O)[C@@H](NC(=O)NC12CC3CC(CC(C3)C1)C2)C(C)(C)C)C(=O)NS(=O)(=O)C1CC1` , what pIC50 is on record? 7.30 to 9.00

For the molecule `C=C[C@@H]1C[C@]1(NC(=O)[C@@H]1C[C@@](OC)(c2ccc(-c3ccccc3)cc2)CN1C(=O)[C@H](Nc1ccc(F)c(F)c1)C(C)(C)C)C(=O)NS(=O)(=O)C1CC1` , what pIC50 is on record? < 6.30

For the molecule `C=CCCCCC[C@H](NC(=O)OC(C)(C)C)C(=O)N1C[C@](OC)(c2ccc(-c3ccccc3)cc2)C[C@H]1C(=O)N[C@]1(C(=O)NS(=O)(=O)C2CC2)C[C@H]1C=C` , what pIC50 is on record? 6.30 to 7.30

----------
measurement target: HCV NS3/4A protease complex, J4L6S strain (1b genotype) (Hepatitis C virus genotype 1b, UniProt O92972, C1454S/C1711G)
Construct: DNA encoding the recombinant HCV NS3/4A protease complex (amino acids 1027 to 1711) for these strains
Sequence (O92972 1027-1711 C1454S/C1711G, one chain of several): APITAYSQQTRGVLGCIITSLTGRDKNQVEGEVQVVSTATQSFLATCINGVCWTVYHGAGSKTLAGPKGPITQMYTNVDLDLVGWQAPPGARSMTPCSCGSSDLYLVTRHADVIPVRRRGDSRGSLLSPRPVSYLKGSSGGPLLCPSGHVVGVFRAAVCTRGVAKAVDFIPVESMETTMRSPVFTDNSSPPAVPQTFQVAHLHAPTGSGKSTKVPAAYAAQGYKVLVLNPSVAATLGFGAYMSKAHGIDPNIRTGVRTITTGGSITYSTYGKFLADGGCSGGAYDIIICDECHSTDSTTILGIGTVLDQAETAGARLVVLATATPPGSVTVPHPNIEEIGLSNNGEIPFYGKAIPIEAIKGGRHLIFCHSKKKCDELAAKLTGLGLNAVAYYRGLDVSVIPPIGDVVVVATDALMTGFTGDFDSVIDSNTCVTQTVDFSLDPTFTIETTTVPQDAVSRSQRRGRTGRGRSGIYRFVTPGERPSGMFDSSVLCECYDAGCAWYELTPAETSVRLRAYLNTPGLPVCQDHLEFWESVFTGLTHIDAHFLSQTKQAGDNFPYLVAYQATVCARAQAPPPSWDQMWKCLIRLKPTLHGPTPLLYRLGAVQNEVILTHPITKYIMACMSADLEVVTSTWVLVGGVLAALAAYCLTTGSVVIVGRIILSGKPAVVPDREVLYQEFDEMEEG
experimental details: FRET peptide assay to monitor HCV NS3/4A proteolytic activity (J4L6S strain)
condition details: read-out: IC50 against NS3/4A J4L6S strain
endpoint name: IC50 (nM)
Lab book: enter the figure in nM, no units written.

For the compound C=C[C@@H]1C[C@]1(NC(=O)[C@@H]1C[C@@](O)(c2ccc(-c3ccccc3)cc2)CN1C(=O)[C@@H](NC(=O)OC(C)(C)C)C(C)(C)C)C(=O)NS(=O)(=O)C1CC1 [Compound 3] , what IC50 is on record? 1.1

----------
pIC50: −log10 of the molar value.
endpoint name: pIC50

// map `C=C[C@@H]1C[C@]1(NC(=O)[C@@H]1C[C@@](O)(c2ccc(-c3ccccc3)cc2)CN1C(=O)[C@@H](NC(=O)OC(C)(C)C)C(C)(C)C)C(=O)NS(=O)(=O)C1CC1` to recorded pIC50 (system: human liver cathepsin B (Homo sapiens, UniProt P07858)) < 4.00

----------
measurement target: HCV NS3/4A protease complex, BMS strain (genotype 1a) (UniProt P27958, species not given/STRAIN_BMS)
Construct: "DNA encoding the recombinant HCV NS3/4A protease complex (amino acids 1027 to 1711) for these strains" (said of H77 and J4L6S, not expressly of BMS); given for the H77/J4L6S constructs only
experimental details: FRET peptide assay to monitor HCV NS3/4A proteolytic activity (BMS strain)
Assay type: biochemical
condition details: NS3/4A BMS strain; numeric cells of Table 2; read-out: HCV Protease (IC50)
endpoint name: IC50 (nM)
Lab book: enter the figure in nM, no units written.

For the compound C=C[C@@H]1C[C@]1(NC(=O)[C@@H]1C[C@@](OC)(c2ccc(-c3ccccc3)cc2)CN1C(=O)[C@H](Nc1cccc(OC)c1)C(C)(C)C)C(=O)NS(=O)(=O)C1CC1 [Cmpd 208] , what IC50 is on record? 315

For the compound C=C[C@@H]1C[C@]1(NC(=O)[C@@H]1C[C@@](OC)(c2ccc(-c3ccccc3)cc2)CN1C(=O)[C@H](Cc1ccc(C(C)(C)C)cc1)NC(=O)OC(C)(C)C)C(=O)NS(=O)(=O)C1CC1 [Cmpd 211] , what IC50 is on record? 1600

For the compound C=C[C@@H]1C[C@]1(NC(=O)[C@@H]1C[C@@](OC)(c2ccc(-c3ccccc3)cc2)CN1C(=O)[C@@H](NC(=O)OC(C)(C)C)C(C)(C)C)C(=O)NS(=O)(=O)C1CC1 [Cmpd 106] , what IC50 is on record? 1

----------
measurement target: human neutrophil elastase (HNE) (Homo sapiens, UniProt P08246)
Sequence (P08246 30-267): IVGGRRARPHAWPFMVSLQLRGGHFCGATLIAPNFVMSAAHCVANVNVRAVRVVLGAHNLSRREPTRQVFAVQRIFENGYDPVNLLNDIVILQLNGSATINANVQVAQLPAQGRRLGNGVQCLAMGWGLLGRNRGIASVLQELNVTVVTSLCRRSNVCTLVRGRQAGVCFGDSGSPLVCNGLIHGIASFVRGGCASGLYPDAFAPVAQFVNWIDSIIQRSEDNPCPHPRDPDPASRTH
experimental details: Specificity assay, neutrophil elastase
condition details: read-out: HLE activity in the specificity assays
endpoint name: IC50
Write your answer as a measured quantity: the number, then the unit.

For the compound C=C[C@@H]1C[C@]1(NC(=O)[C@@H]1C[C@@](O)(c2ccc(-c3ccccc3)cc2)CN1C(=O)[C@@H](NC(=O)OC(C)(C)C)C(C)(C)C)C(=O)NS(=O)(=O)C1CC1 [Compound 3] , what IC50 is on record? 82 µM
